- System tested: PDE3A (Homo sapiens, UniProt Q14432)
- Sequence (Q14432 whole entry): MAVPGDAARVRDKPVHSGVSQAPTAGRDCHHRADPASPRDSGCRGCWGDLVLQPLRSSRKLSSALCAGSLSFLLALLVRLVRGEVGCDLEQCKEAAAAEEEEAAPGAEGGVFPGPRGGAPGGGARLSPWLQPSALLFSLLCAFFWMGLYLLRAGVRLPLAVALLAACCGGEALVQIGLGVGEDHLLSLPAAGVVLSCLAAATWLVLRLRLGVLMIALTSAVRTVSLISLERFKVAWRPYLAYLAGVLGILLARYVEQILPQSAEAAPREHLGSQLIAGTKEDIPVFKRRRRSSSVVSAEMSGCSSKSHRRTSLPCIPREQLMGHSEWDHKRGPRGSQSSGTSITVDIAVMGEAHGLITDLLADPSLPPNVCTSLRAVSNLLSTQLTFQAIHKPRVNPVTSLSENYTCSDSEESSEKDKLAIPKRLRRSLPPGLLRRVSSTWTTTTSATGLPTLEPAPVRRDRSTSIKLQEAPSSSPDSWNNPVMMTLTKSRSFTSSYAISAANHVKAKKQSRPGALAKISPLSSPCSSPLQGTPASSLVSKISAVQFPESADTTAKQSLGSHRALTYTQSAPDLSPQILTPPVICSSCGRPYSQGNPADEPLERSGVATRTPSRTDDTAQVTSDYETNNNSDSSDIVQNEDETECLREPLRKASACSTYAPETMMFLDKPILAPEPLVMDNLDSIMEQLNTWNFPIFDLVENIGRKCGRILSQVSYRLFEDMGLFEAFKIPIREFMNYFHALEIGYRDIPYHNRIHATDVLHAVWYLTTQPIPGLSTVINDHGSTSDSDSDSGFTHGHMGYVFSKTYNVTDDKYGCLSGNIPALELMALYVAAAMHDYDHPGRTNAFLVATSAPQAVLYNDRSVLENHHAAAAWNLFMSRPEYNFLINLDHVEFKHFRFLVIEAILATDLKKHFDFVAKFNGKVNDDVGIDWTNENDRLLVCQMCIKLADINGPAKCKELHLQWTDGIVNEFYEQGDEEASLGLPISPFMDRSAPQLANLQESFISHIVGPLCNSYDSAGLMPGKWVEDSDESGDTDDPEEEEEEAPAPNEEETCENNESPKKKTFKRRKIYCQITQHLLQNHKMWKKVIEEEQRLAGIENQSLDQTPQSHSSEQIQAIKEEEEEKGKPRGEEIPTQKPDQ
Endpoint name: IC50

Measured IC50 (PDE3A (Homo sapiens, UniProt Q14432)), entry `Cc1c(C#N)cccc1[C@@H](C)Nc1nnc(C)c2cnc(N3CCOCC3)cc12` : > 10 µM

* * *

- Assay protocol: Rat PK (IV and PO)
- Type: in vivo, Sprague–Dawley rats
- Conditions: Sprague-Dawley, in vivo, IV 1 mg/kg
Endpoint name: clearance (mL/min/kg)
Your answer is read as mL/min/kg, so omit the unit and give the number.

GET /value?item= `Cc1c(C#N)cccc1[C@@H](C)Nc1nnc(C)c2cnc(N3CCOCC3)cc12` &field=clearance returns 14.6
